meta.source: the Human Domainome abundance scans (Beltran et al. 2025)

Reported values of abundance fitness for individual entries
B1: Transcription factor SOX-4, residues 60 to 127; numbered along this chain, Q06945 (parent)
chain: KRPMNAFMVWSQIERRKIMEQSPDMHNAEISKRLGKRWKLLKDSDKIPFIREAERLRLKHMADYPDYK

variants of: B1; assay: abundance fitness (aPCA) (normalised: wild type 0, dead -1); higher = more abundant; growth selection in yeast, the domain comes from the species named; conditions: Homo sapiens
Format: numeric value only, no unit, no commentary.

Example entries begin here.
# MUTANT LABEL, abundance fitness
rows = [
    ("K59Y", -0.277),
    ("L40T", 0.019),
    ("L58K", -0.07),
    ("S44E", 0.119),
]

[ask] Quick check: abundance fitness of F49V ?
[reply] -0.763
